Origin of measurements: PubChem BioAssay (NCI)

System: MDA-MB-231 breast
Test: NCI-60 one-dose screen, 48 h (100 = growth as untreated, 0 = no growth, -100 = all killed)
Condition details: 10 µM unless noted
The panel holds about 83,000 compounds, 20% with a hit somewhere; the sample as a whole holds those more often.
Metric name: growth (%)
State just the number; it will be interpreted in %.

Field: example entries. Status: answers known.
CN(C)N1C(=O)c2c(Cl)c(Cl)c(Cl)c(Cl)c2C1=O : 115
CC(=O)N1N=C(C2C(=O)N(C)C(=O)N(C)C2=O)CC1c1ccccc1C(=O)O (configuration not stated) : 104
O=C(c1ccccc1)C(CCc1ccccn1)CCc1ccccn1 : 99.5

Reported growth for CCN1C(=O)N(CC)C2C1N=C(SC)N2/N=C/C=C/c1ccccc1OC (configuration not stated) : what is it?
21.2

Item: C=C1C[C@@]2(C)C(CC[C@]3(C)C2CC=C2C4CC(C)(C)C[C@@H](OC(=O)/C(C)=C\C)[C@]4(C(=O)O)CC[C@]23C)C(C)(C)C1=O (some centres not stated)
22.7

Item: Cc1ccc2c(C)c3c(ccc4ccccc43)c[n+]2c1
72.7

Item: CCCCCCCCCCCCNC(=O)N[C@H](C(=O)N[C@H]1/C=C/CCNC(=O)/C=C/[C@H](C)NC1=O)C(C)C
-44.7

Item: O=C(CCl)Nc1cc(O)c2c(c1)C(=O)c1cccc(O)c1C2=O
-27.7

Item: COc1cc(NCC(O)CN(CC(C)C)CC(C)C)c2ncccc2c1 (configuration not stated)
85.5

Item: O=C(O)CSc1ccc(NCc2oc(CO)cc(=O)c2O)cc1
97.2

Item: N/C(=C\C(=O)n1nc(-c2ccccc2)cc1N)c1ccccc1
51.5

Item: CC(=O)CC(c1ccc([N+](=O)[O-])cc1)c1c(O)c2ccccc2oc1=O (configuration not stated)
95.9

Item: ClC1(Cl)C2CCCCCCC21 (configuration not stated)
122

Item: O=C(CSc1nnc(Cc2ccccc2Nc2c(Cl)cccc2Cl)n1-c1ccccc1)N1N=C(c2ccc3ccccc3c2)CC1c1ccc(Cl)cc1 (configuration not stated)
104

Item: COc1cc(C2CC(c3cccc(Nc4ccnc5cc(Cl)ccc45)c3)=NN2C=O)cc(OC)c1OC (configuration not stated)
6.76

Item: CCn1c(Cc2ccccc2Nc2c(Cl)cccc2Cl)nnc1SCC(=O)Nc1ccccc1C(F)(F)F
84.8

Item: COc1ccc2c(c1)C1=NN(C(=O)CO)[C@H](c3ccc(OC(F)(F)F)cc3)[C@@H]1CC2
94.7

Item: CCOC(=O)C1C(=O)C=C(c2cc(OC)c(OC)c(OC)c2)CC1c1sc(N(C)Cc2ccccc2)nc1Cl (configuration not stated)
82.9

Item: Oc1ccc(-c2nnc3c4[nH]ccc4ncn23)cc1
92

Item: CCCCCCCCCCCC1=NC(C)(C)CN1CC(C)O (configuration not stated)
44

Item: COc1nccc2c(Sc3ccccc3)nc(N)nc12
100

Item: COc1cc(-c2nc(-c3ccc(-c4nc5ccc(F)cc5[nH]4)cc3)no2)cc(OC)c1OC
9.59

Item: CCOC(=O)c1ccc2c(c1)nc(-c1ccc(Cl)cc1)n2-c1cc(C(C)(C)C)[nH]n1
54.1

Item: Nc1c(C(=O)Nc2cccc(Cl)c2)sc2nc3c(cc12)C(=O)CCC3
43.9
